Data origin: patent US5968933A

# reversion colonies, TA100 per entry
Tested on: S. typhimurium TA100
Assay: Bacterial mutagenicity, plate incorporation assay, TA100
Conditions: 20 μg/plate; mean ± SD
Form field (numeric): enter value without unit.

For orientation, consider the following solved cases.
CN1CCN(c2ccc3nc(-c4ccc5nc(CCCCCCc6ccc(N(CCCl)CCCl)cc6)[nH]c5c4)[nH]c3c2)CC1 [Compound 6] | 156
CN1CCN(c2ccc3nc(-c4ccc5nc(-c6ccc(N(C)CCCl)cc6)[nH]c5c4)[nH]c3c2)CC1 [Compound 1] | 172
CN1CCN(c2ccc3nc(-c4ccc5nc(-c6ccc(O)cc6)[nH]c5c4)[nH]c3c2)CC1 [Pibenzimol, reference compound] | 179
CN1CCN(c2ccc3nc(-c4ccc5nc(Cc6ccc(N(CCCl)CCCl)cc6)[nH]c5c4)[nH]c3c2)CC1 [Compound 3] | 137
CN1CCN(c2ccc3nc(-c4ccc5nc(CCc6ccc(N(CCCl)CCCl)cc6)[nH]c5c4)[nH]c3c2)CC1 [Compound 4] | 264

Req: So what does the record say about reversion colonies, TA100 for CN1CCN(c2ccc3nc(-c4ccc5nc(-c6ccc(N(CCCl)CCCl)cc6)[nH]c5c4)[nH]c3c2)CC1 [Compound 2] ?
Resp: 167

Req: So what does the record say about reversion colonies, TA100 for CN1CCN(c2ccc3nc(-c4ccc5nc(CCCc6ccc(N(CCCl)CCCl)cc6)[nH]c5c4)[nH]c3c2)CC1 [Compound 5] ?
Resp: 205

###

# reversion colonies, TA98 per entry
Test system: S. typhimurium TA98
Assay: Bacterial mutagenicity, plate incorporation assay, TA98
Conditions: 4 μg/plate; mean ± SD
Form field (numeric): enter value without unit.

For orientation, consider the following solved cases.
CN1CCN(c2ccc3nc(-c4ccc5nc(CCCc6ccc(N(CCCl)CCCl)cc6)[nH]c5c4)[nH]c3c2)CC1 | 63
CN1CCN(c2ccc3nc(-c4ccc5nc(Cc6ccc(N(CCCl)CCCl)cc6)[nH]c5c4)[nH]c3c2)CC1 | 71
CN1CCN(c2ccc3nc(-c4ccc5nc(-c6ccc(N(CCCl)CCCl)cc6)[nH]c5c4)[nH]c3c2)CC1 | 61

Req: So what does the record say about reversion colonies, TA98 for CN1CCN(c2ccc3nc(-c4ccc5nc(-c6ccc(N(C)CCCl)cc6)[nH]c5c4)[nH]c3c2)CC1 ?
Resp: 70

Req: So what does the record say about reversion colonies, TA98 for CN1CCN(c2ccc3nc(-c4ccc5nc(CCc6ccc(N(CCCl)CCCl)cc6)[nH]c5c4)[nH]c3c2)CC1 ?
Resp: 71

Req: So what does the record say about reversion colonies, TA98 for CN1CCN(c2ccc3nc(-c4ccc5nc(-c6ccc(O)cc6)[nH]c5c4)[nH]c3c2)CC1 [Pibenzimol, reference compound] ?
Resp: 59

Req: So what does the record say about reversion colonies, TA98 for CN1CCN(c2ccc3nc(-c4ccc5nc(CCCCCCc6ccc(N(CCCl)CCCl)cc6)[nH]c5c4)[nH]c3c2)CC1 ?
Resp: 65

###

# reversion colonies, TA100 per entry
Test system: S. typhimurium TA100
Assay: Bacterial mutagenicity, plate incorporation assay, TA100
Conditions: 10 μg/plate; mean ± SD
Form field (numeric): enter value without unit.

For orientation, consider the following solved cases.
CN1CCN(c2ccc3nc(-c4ccc5nc(CCc6ccc(N(CCCl)CCCl)cc6)[nH]c5c4)[nH]c3c2)CC1 | 231
CN1CCN(c2ccc3nc(-c4ccc5nc(CCCc6ccc(N(CCCl)CCCl)cc6)[nH]c5c4)[nH]c3c2)CC1 | 180

Req: So what does the record say about reversion colonies, TA100 for CN1CCN(c2ccc3nc(-c4ccc5nc(-c6ccc(O)cc6)[nH]c5c4)[nH]c3c2)CC1 [Pibenzimol, reference compound] ?
Resp: 191

Req: So what does the record say about reversion colonies, TA100 for CN1CCN(c2ccc3nc(-c4ccc5nc(-c6ccc(N(CCCl)CCCl)cc6)[nH]c5c4)[nH]c3c2)CC1 ?
Resp: 175

Req: So what does the record say about reversion colonies, TA100 for CN1CCN(c2ccc3nc(-c4ccc5nc(CCCCCCc6ccc(N(CCCl)CCCl)cc6)[nH]c5c4)[nH]c3c2)CC1 ?
Resp: 136

Req: So what does the record say about reversion colonies, TA100 for CN1CCN(c2ccc3nc(-c4ccc5nc(Cc6ccc(N(CCCl)CCCl)cc6)[nH]c5c4)[nH]c3c2)CC1 ?
Resp: 130

Req: So what does the record say about reversion colonies, TA100 for CN1CCN(c2ccc3nc(-c4ccc5nc(-c6ccc(N(C)CCCl)cc6)[nH]c5c4)[nH]c3c2)CC1 ?
Resp: 162
